Target: Prostaglandin G/H synthase 1 (Canis lupus familiaris, UniProt Q8HZR1)
Sequence (Q8HZR1 whole entry): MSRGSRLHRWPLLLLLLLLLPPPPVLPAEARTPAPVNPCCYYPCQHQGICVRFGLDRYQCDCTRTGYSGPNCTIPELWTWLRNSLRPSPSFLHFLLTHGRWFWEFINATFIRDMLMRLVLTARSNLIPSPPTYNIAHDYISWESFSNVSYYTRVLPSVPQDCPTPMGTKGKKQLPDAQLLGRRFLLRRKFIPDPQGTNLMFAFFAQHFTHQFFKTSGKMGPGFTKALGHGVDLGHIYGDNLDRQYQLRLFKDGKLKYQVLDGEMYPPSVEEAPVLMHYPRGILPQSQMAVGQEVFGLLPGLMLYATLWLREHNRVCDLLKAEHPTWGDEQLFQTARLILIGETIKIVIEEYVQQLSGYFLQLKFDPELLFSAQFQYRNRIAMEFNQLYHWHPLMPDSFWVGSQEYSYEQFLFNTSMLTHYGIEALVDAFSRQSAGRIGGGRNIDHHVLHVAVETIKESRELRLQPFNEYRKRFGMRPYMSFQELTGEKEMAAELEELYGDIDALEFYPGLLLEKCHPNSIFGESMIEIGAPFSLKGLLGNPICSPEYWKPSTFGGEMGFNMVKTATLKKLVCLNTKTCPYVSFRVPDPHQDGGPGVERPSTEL
Experiment: Inhibition of COX1 in canine whole blood
With a cut-off of 20 µM, any IC50 strictly below it is called Fulfilled; any IC50 meeting it or above is called Not fulfilled.

CS(=O)(=O)c1ccc(-n2nc(C(F)F)cc2-c2ccc(-c3ccco3)c(F)c2)nc1 : Fulfilled
Cc1cc(-c2cc(C(F)F)nn2-c2ccc(S(C)(=O)=O)cn2)ccc1-c1cscn1 : Fulfilled
CS(=O)(=O)c1ccc(-n2nc(C(F)(F)F)cc2-c2ccc(-c3ccco3)c(F)c2)nc1 : Not fulfilled
Cc1cc(-c2cc(C(F)(F)F)nn2-c2ccc(S(C)(=O)=O)cn2)ccc1-c1cscn1 : Fulfilled

Next item in the queue.
Bench note: check whether CS(=O)(=O)c1ccc(-n2nc(C(F)(F)F)cc2-c2ccc(-c3nccs3)c(C#N)c2)nc1 shows IC50 below 20 µM
Not fulfilled

----------
Target: Prostaglandin G/H synthase 1 (Canis lupus familiaris)
Test: Inhibition of COX1 in canine whole blood
In this section we review reported IC50 values for a set of compounds.
Number only, in µM; omit the unit.

Recorded IC50, per entry:
Cc1cc(-c2cc(C(F)(F)F)nn2-c2ccc(S(C)(=O)=O)cn2)ccc1-c1ncco1 : 11.1
CS(=O)(=O)c1ccc(-n2nc(C(F)(F)F)cc2-c2ccc(-c3cscn3)cc2F)nc1 : 22.7
CS(=O)(=O)c1ccc(-n2nc(C(F)(F)F)cc2-c2ccc(-c3ccco3)cc2)nc1 : 18.2

Please fill in: IC50 reported for CS(=O)(=O)c1ccc(-n2nc(C(F)F)cc2-c2ccc(-c3ccco3)c(Cl)c2)nc1 = 5.5

----------
Biological target: Cyclooxygenase-2 (Canis lupus familiaris, UniProt Q8SPQ9)
Sequence (Q8SPQ9 whole entry): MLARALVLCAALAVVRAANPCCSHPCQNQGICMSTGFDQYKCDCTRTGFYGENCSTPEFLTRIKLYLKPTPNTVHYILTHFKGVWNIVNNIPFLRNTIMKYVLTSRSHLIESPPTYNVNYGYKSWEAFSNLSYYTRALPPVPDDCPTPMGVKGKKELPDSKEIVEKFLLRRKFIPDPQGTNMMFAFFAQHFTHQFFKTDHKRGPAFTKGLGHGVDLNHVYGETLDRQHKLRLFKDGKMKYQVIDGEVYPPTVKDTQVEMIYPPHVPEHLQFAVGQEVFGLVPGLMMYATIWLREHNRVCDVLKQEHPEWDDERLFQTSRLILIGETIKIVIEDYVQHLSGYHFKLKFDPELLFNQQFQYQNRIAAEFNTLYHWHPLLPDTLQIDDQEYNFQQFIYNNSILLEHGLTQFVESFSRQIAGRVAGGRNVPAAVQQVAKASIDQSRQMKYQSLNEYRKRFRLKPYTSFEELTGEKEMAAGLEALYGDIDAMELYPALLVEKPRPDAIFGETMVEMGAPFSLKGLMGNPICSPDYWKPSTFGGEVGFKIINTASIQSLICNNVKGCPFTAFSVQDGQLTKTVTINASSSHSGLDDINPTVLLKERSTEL
Assay: Inhibition of COX2 in canine whole blood
experimentalReadout: IC50
Write the figure, then the unit, nothing else.

Recorded IC50, per entry:
CS(=O)(=O)c1ccc(-n2nc(C(F)(F)F)cc2-c2ccc(-c3cscn3)cc2)nc1 : 160 nM
CS(=O)(=O)c1ccc(-n2nc(C(F)(F)F)cc2-c2ccc(-c3nccs3)c(C#N)c2)nc1 : 110 nM

Please fill in: IC50 reported for Cc1cc(-c2cc(C(F)(F)F)nn2-c2ccc(S(C)(=O)=O)cn2)ccc1-c1ncco1 = 65 nM
